B1: HEEH_KT_rd6_3632 (parent)
chain: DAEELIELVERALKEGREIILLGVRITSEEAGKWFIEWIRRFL

- Variants of: B1
- method: folding stability dG (cDNA display proteolysis); higher = more stable
- condition_label: PBS, room temperature
property_measured: folding stability dG (kcal/mol)

                            primary_sequence  observed
 0  DAEELIELVERALKEGREIILLGVRITSEEAGKWFLEWIRRFL [I36L]      3.52
 1  DAEELSELVERALKEGREIILLGVRITSEEAGKWFIEWIRRFL [I6S]      3.18
 2  DAEELIELVQRALKEGREIILLGVRITSEEAGKWFIEWIRRFL [E10Q]      3.83
 3  DAEELIELVERALKEGREIILLGVRITSEEAGKWFIEWIRVFL [R41V]       3.7
 4  DAEELIELVERALKEGREIILLWVRITSEEAGKWFIEWIRRFL [G23W]      4.11
 5  DAEELIELVERAWKEGREIILLGVRITSEEAGKWFIEWIRRFL [L13W]      3.43
 6  DAEELIELVERALKEGREIILLGVRITSEEAGKWFIEWIRRFV [L43V]      3.48
 7  DAEELIELVERALKEGREIILLGVRITSEEAGKWFIEWIRRFR [L43R]      3.03
 8  YAEELIELVERALKEGREIILLGVRITSEEAGKWFIEWIRRFL [D1Y]      4.26
 9  DAEELIELVERALKEGREIILLGVRITSNEAGKWFIEWIRRFL [E29N]      3.81
10  DAEELIELVERALKEGRIIILLGVRITSEEAGKWFIEWIRRFL [E18I]      4.02
11  DAEELIELVERALKEGREIILLGVRITSEAAGKWFIEWIRRFL [E30A]         4
12  DAEELIELVERALKEGREIILLGVRITSEEAGKWFIEWIRRFN [L43N]      2.97
13  DAEELIELVERALKEGREIILLGVRITSEEAGKWFIEWITRFL [R40T]      3.46
14  DAEELIELVKRALKEGREIILLGVRITSEEAGKWFIEWIRRFL [E10K]      3.93
15  DAEEKIELVERALKEGREIILLGVRITSEEAGKWFIEWIRRFL [L5K]      2.83
16  DAEELIELVERALKEGREIILLGVRITSEEAGKWFIEWIRFFL [R41F]      3.95
17  DAEELIEPVERALKEGREIILLGVRITSEEAGKWFIEWIRRFL [L8P]      2.77
18  DAEEAIELVERALKEGREIILLGVRITSEEAGKWFIEWIRRFL [L5A]      2.97
19  DAEELIELVERAGKEGREIILLGVRITSEEAGKWFIEWIRRFL [L13G]      2.96
20  DAEELIELVERALKEGREIILLGVRITSEEAGKWFILWIRRFL [E37L]      3.93
21  DAEELIELVERALKEGREIILLGVRITSEEAGCWFIEWIRRFL [K33C]      3.99
22  DAEELIELVERALKEGREIILLGVRITSEEAGKWFIEWIRRRL [F42R]      3.29
23  DAEELIELNERALKEGREIILLGVRITSEEAGKWFIEWIRRFL [V9N]      2.91
24  DAEELIELVERALKEGREIILLGVRITSEEAGPWFIEWIRRFL [K33P]       3.2
25  LAEELIELVERALKEGREIILLGVRITSEEAGKWFIEWIRRFL [D1L]      4.31
26  DAEELIELVERALKEGREIILLGVRITSEEAGKWFIEWIRREL [F42E]      2.91
27  DAEELIELVERALKEGREIILLGVRITSEEAGKWRIEWIRRFL [F35R]      2.98
28  DAEELIELVERALKEGREIILLGVRITSTEAGKWFIEWIRRFL [E29T]      3.83
29  DAEELIELVERALKEGREIILLGVRITSEMAGKWFIEWIRRFL [E30M]      3.86
30  DAEELIELVERGLKEGREIILLGVRITSEEAGKWFIEWIRRFL [A12G]      3.21
31  DAEELIELVERALKEGRNIILLGVRITSEEAGKWFIEWIRRFL [E18N]      3.69
32  DAEELIELVERALKEGPEIILLGVRITSEEAGKWFIEWIRRFL [R17P]      3.36
33  DAEELIELVERALKEGREIILLGVRITSGEAGKWFIEWIRRFL [E29G]      3.63
34  DATELIELVERALKEGREIILLGVRITSEEAGKWFIEWIRRFL [E3T]      3.83
35  DAEELIELVERALKEVREIILLGVRITSEEAGKWFIEWIRRFL [G16V]      3.74
36  DAEELIELVERALKEGREIILLGVRITLEEAGKWFIEWIRRFL [S28L]      3.73
37  DAEELIELVERALKEGREIYLLGVRITSEEAGKWFIEWIRRFL [I20Y]      3.27
38  DAEELIELVERALKEGREIILLGVRITSEEAGKWFTEWIRRFL [I36T]      3.09
39  DAEELIELVERALKEGRETILLGVRITSEEAGKWFIEWIRRFL [I19T]      2.97
40  DAEELIELVMRALKEGREIILLGVRITSEEAGKWFIEWIRRFL [E10M]      3.84
41  DAEELIELVGRALKEGREIILLGVRITSEEAGKWFIEWIRRFL [E10G]      3.28
42  DAEELIELVERALFEGREIILLGVRITSEEAGKWFIEWIRRFL [K14F]      3.39
43  DAEELIELVERALKEGREIILPGVRITSEEAGKWFIEWIRRFL [L22P]      2.68
44  DAEELIELVERALKEGREIILLGVRITSEEAGKWFIETIRRFL [W38T]      2.79
45  DAEELIELVERALKIGREIILLGVRITSEEAGKWFIEWIRRFL [E15I]      3.62
